System: S. aureus
assay name: MIC, broth microdilution
Assay type: cell-based
stated conditions: Staphylococcus aureus, MRSA, read-out: Average MIC value, S. aureus CA-MRSA, 1 strain

>  <structure notation>
CC(=O)N[C@H]1[C@H](O[C@@H]2c3ccc(c(Cl)c3)Oc3cc4cc(c3O)Oc3ccc(cc3Cl)C[C@H]3NC(=O)[C@H](n5cc(COCCCC(F)(F)C(F)(F)C(F)(F)C(F)(F)C(F)(F)C(F)(F)F)nn5)c5ccc(O)c(c5)Oc5cc(O)cc(c5)[C@H](NC3=O)C(=O)N[C@H]4C(=O)N[C@H]3C(=O)N[C@@H]2C(=O)N[C@H](C(=O)O)c2cc(O)cc(O)c2-c2cc3ccc2O)O[C@H](CO)[C@@H](O)[C@@H]1O

>  <MIC [µg/mL]>
2

$$$$
